Parameter Ki, tested on UniProt P0DMS8, listed per item.
Supply the numeric figure in nM, leaving out any unit text.

In [3]: df
Out[3]:
                               smiles_entry   target_entity  unit  value_observed
0  CCCn1c(=O)c2[nH]c(-c3ccc(C=CC(=O)O)cc3)nc2n(CCC)c1=O  UniProt P0DMS8    nM              55

# query: Ki | item CCCn1c(=O)c2[nH]c(-c3ccc(OCC(=O)O)cc3)nc2n(Cc2ccc(N)c(I)c2)c1=O | system: UniProt P0DMS8 18

* * *

# target.entity: human A3 adenosine receptor (Homo sapiens, UniProt P0DMS8)
# Construct: clone HS-21a contained the complete open reading frame corresponding to the human homolog of the rat A3 adenosine receptor; expressed in transfected cells; host or cells: CHO cells, stably transfected (pCMV5-A3; pSVL and pREP vectors are also described)
# Sequence (P0DMS8 whole entry): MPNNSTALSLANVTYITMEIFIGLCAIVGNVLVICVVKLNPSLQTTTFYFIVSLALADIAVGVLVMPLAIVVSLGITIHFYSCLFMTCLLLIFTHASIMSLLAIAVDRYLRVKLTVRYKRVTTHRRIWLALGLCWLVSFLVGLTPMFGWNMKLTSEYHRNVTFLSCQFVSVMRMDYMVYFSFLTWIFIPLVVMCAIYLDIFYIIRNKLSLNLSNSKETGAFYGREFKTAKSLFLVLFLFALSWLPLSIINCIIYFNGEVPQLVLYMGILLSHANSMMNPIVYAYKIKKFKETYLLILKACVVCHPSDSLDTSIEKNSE
# test: Saturation binding of 125I-ABA to membranes of CHO cells stably expressing HS-21a (human A3 adenosine receptor)
# measurement.parameters: 125I-ABA, HS-21a stable CHO cell membranes; read-out: dissociation constant
measurement.name: Kd (nM)
Supply the numeric figure in nM, leaving out any unit text.

For the compound Nc1ccc(CNc2ncnc3c2ncn3[C@@H]2O[C@H](CO)[C@@H](O)[C@H]2O)cc1[125I] [^125 I-ABA] , what Kd is on record? 10
